Target: NCF1
Test: pooled miR-30 sensor sort-seq; sequence = guide strand; also: reference of the scale not given here
Details: shRNA
Label 1 when sensor-assay potency score (higher = more potent) is at or above 0.3; anything below gets 0.

SEQ TEXT	ASSAY TARGET	CLASSIFICATION
TAGATCTCGGTGAAGCGCCGGT	NCF1	0
TTCATCTGACAGAACCACCAAC	NCF1	0
TTTTTTGTCTGGTTGTCCGTGG	NCF1	1
TGGAACTCGTAGATCTCGGTGA	NCF1	0
TCTGACAGAACCACCAACCGCT	NCF1	1
TTTTGCAGGTACATGGACGGGA	NCF1	1
TTCCGCTTGGTGCTCTCGCTGC	NCF1	0
TTATGGAACTCGTAGATCTCGG	NCF1	0
TAAGGTTTTATGGAACTCGTAG	NCF1	0

###

Target: POLG
Assay: pooled miR-30 sensor sort-seq; sequence = guide strand
Settings: shRNA
Response field class: enum, chosen by comparing sensor-assay potency score (higher = more potent) against zone 1: < -0.5; zone 2: ≥ -0.5 and < 0.09; zone 3: ≥ 0.09

SEQ TEXT	CLASSIFICATION
TATGGCACTATTGTCAGTGAGC	zone 1
ATTACAGCTATTACCATCCTTG	zone 2
TAATCCAGTTCTTCTACCGTTT	zone 2
TTGTAGGCAAACATGCACCTGG	zone 2
TTCCTCATCATAGTCGGGGTGC	zone 3
TATTGAACATTTCTGACTCTGT	zone 3
TTAAACTGCATTAGTAAGCGCT	zone 2
TTTAGGTGTGACCCGCATCTGC	zone 1

###

Biological target: FAN1
Assay: pooled miR-30 sensor sort-seq; sequence = guide strand
Conditions: shRNA
RECORDED ENDPOINT: sensor-assay potency score (higher = more potent)

SEQ TEXT	MEASURED
TTCTTTGATACACTCTTGCTTT	-0.307
TTGACCAACAGGACTGTTGAAA	-0.462
TAACATGATCGCATTATCTGAG	0.286

###

Biological target: QSOX1
Test: pooled miR-30 sensor sort-seq; sequence = guide strand
Details: shRNA
Each item that follows carries a reported sensor-assay potency score (higher = more potent).
RECORDED ENDPOINT: sensor-assay potency score (higher = more potent)

SEQ TEXT	MEASURED
TTTGTGCTGGGACAGGTCCAGA	-1.47
TTCCGGAACAGCAGGTAGCAAG	-1.46
TTGAAGTCTCTGCAGACTGCAC	-0.833

###

Biological target: GALT
Experiment: pooled miR-30 sensor sort-seq; sequence = guide strand
Settings: shRNA
Each item that follows carries a reported sensor-assay potency score (higher = more potent).
RECORDED ENDPOINT: sensor-assay potency score (higher = more potent)

SEQ TEXT	MEASURED
TATCTGGCAGGAAACTGCTGGC	-0.854
TACTAACCAGTGCTCACTGGTT	-0.859
TTCCTTCCTGAGTAGCTCCTGG	-0.401
TTCACCTCTCCGTTGGCTCGGA	-0.467
AAGGGGACCAGTACTAACCAGT	-0.813
AAGCATTTCGTAGCCAACCATG	-1.22
TTCCTGAGTAGCTCCTGGCGGC	-0.283
TAGCCAACCATGAATTTCCGGA	-0.189
ATACTTGGTCAAGAGCTTCTTC	-0.165

###

Target: SDHAF1
Assay: pooled miR-30 sensor sort-seq; sequence = guide strand
Details: shRNA
RECORDED ENDPOINT: sensor-assay potency score (higher = more potent)

SEQ TEXT	ASSAY TARGET	MEASURED
ATGCGCAGCACGTCGGACCGCG	SDHAF1	-1.11
TGCGCAGCACGTCGGACCGCGG	SDHAF1	-1.5
TGTCGCCGTCGTCAGGCTGGGA	SDHAF1	-1.53

###

Biological target: PSPH
Experiment: pooled miR-30 sensor sort-seq; sequence = guide strand
Conditions: shRNA
RECORDED ENDPOINT: sensor-assay potency score (higher = more potent)

SEQ TEXT	MEASURED
TTAAAGTAGAATTTCAGCCTAT	0.23
TCACTTTTCCTTTTCCACCAGA	-0.287
TTATCCTTGACTTGTTGCCTGA	-0.324

###

Each item that follows carries a reported sensor-assay potency score (higher = more potent).
Biological target: PTGDS
Test: pooled miR-30 sensor sort-seq; sequence = guide strand
Details: shRNA
RECORDED ENDPOINT: sensor-assay potency score (higher = more potent)

SEQ TEXT	MEASURED
TCCGGTAGCTGTAGGAGCCGAG	-0.81
AAGACAATGGTATCCTCTGTGA	-0.868
TTCTCCTTTAACTCAGCCCTGG	-0.867
TAGTCGGTCTCCACCACTGACA	-1.34
TTTTTCCTGAGGAAGGTGGAGG	-1
TTTCTCCTTTAACTCAGCCCTG	-1.14
TTATTGTGCAGGATGAAGCCTG	-0.188

###

Target: ANKRD22
Assay: pooled miR-30 sensor sort-seq; sequence = guide strand
Conditions: shRNA
Each item that follows carries a reported sensor-assay potency score (higher = more potent).
RECORDED ENDPOINT: sensor-assay potency score (higher = more potent)

SEQ TEXT	MEASURED
TTTTGAGGTTGACATTAGCATT	-1.7
ATTAAAGCCATCTTGAACGTTG	-0.412
TTGACATTAGCATTTCTTCTTA	-0.439

###

Each item that follows carries a reported sensor-assay potency score (higher = more potent).
Molecular target: ZFP62
Assay: pooled miR-30 sensor sort-seq; sequence = guide strand
Settings: shRNA
RECORDED ENDPOINT: sensor-assay potency score (higher = more potent)

SEQ TEXT	MEASURED
TTATATTTGAAGGATTTCCCAC	-0.915
ATACATAAGGTCTCTCTCCGGT	0.0569
TTCTGCTTGAGAAAAAAGCTTT	-0.449

###

Each item that follows carries a reported sensor-assay potency score (higher = more potent).
Target: EHD3
Test: pooled miR-30 sensor sort-seq; sequence = guide strand
Settings: shRNA
RECORDED ENDPOINT: sensor-assay potency score (higher = more potent)

SEQ TEXT	MEASURED
TAGGAAAGAACAGAGCTCCTGG	0.716
TGCAAACTCGTCGTCGTCCAGC	-1.01
TTTCTTGGGATCCACCACCAGG	-1.36
TTCAGCACCACTCGCATCTTGT	-0.387
AAACTCGTCGTCGTCCAGCATG	-1.38

###

Target: SCGB3A1
Experiment: pooled miR-30 sensor sort-seq; sequence = guide strand
Conditions: shRNA
Each item that follows carries a reported sensor-assay potency score (higher = more potent).
RECORDED ENDPOINT: sensor-assay potency score (higher = more potent)

SEQ TEXT	MEASURED
TATGAGGTGGTTCACGGGGATG	-2.01
AGCTCAGCCACACACTTCTGGG	-1.63
TCCAGCGCAGCGACAGGCTGGG	-1.47
CTCAGCAGGAGCTTCAGCGGGT	-1.59
AAGAAAGCAGCAGCGGAGCTGC	-0.859

###

Target: FGA
Assay: pooled miR-30 sensor sort-seq; sequence = guide strand
Conditions: shRNA
Each item that follows carries a reported sensor-assay potency score (higher = more potent).
RECORDED ENDPOINT: sensor-assay potency score (higher = more potent)

SEQ TEXT	MEASURED
TTCTGCACAGTTCTCTTCCCAC	-0.744
TAAATTGTTTGCTGTAACTTGA	-0.0308
TTCAGTGATCCATCCATTCTTT	-0.0325
TTGTAGAGAATCTCAACTGCTT	0.304

###

Target: SLC25A3
Assay: pooled miR-30 sensor sort-seq; sequence = guide strand
Settings: shRNA
Each item that follows carries a reported sensor-assay potency score (higher = more potent).
RECORDED ENDPOINT: sensor-assay potency score (higher = more potent)

SEQ TEXT	ASSAY TARGET	MEASURED
TATGGTATCTGTCTCATCCAGA	SLC25A3	0.075
TAAATCTGAAACTCTTGCCTTA	SLC25A3	0.121
TACAAATGTTACAACCAGCTGC	SLC25A3	0.505

###

Each item that follows carries a reported sensor-assay potency score (higher = more potent).
Biological target: PCDHGA11
Assay: pooled miR-30 sensor sort-seq; sequence = guide strand
Settings: shRNA
RECORDED ENDPOINT: sensor-assay potency score (higher = more potent)

SEQ TEXT	MEASURED
TTCTCCAGAATCTTGATCTTGC	0.227
TTGAATTTCCATCTCATAGAAT	-0.931
TTGTCCACCGCAACCACCTTGG	-0.673
TTTTCTGGAACACTCACGCGAT	-0.577
TTTGTCCACCGCAACCACCTTG	-1.17
TCTTGTTGCCATTGCCACCTGC	-0.107
TCAATTTGTAATAATTTCCATA	-0.421

###

Biological target: FAM194A
Test: pooled miR-30 sensor sort-seq; sequence = guide strand
Conditions: shRNA
Each item that follows carries a reported sensor-assay potency score (higher = more potent).
RECORDED ENDPOINT: sensor-assay potency score (higher = more potent)

SEQ TEXT	ASSAY TARGET	MEASURED
TAGAATATTTGTGTTGTCCCAT	FAM194A	0.0372
TACAATGTCATCAATTATCTGT	FAM194A	0.418
TTCTCTAAGAGCTCATTCCTGA	FAM194A	-0.231
